Target: GABARAPL2, P60520
Sequence (P60520 whole entry, the tested form may be a part): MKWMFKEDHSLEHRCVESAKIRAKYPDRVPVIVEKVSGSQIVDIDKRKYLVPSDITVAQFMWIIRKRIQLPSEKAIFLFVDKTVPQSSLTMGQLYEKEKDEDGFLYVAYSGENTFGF
Assay: median log2 fold change of GCK-ALFA target abundance (FLAG IP / Myc IP barcode read proportion) (log2 ratio); each designed protein is fused to an ALFA-tag nanobody in HEK293 cells to bring the named protein to FLAG-tagged glucokinase (GCK); Myc marks an untargeted standard; higher = target protein stabilised (more abundant)
Conditions: target protein: 3xFLAG-MCP-GCK-ALFA reporter; HEK293 landing pad (RPLP)
Assay Endpoint: median log2 fold change

Query string: For the binder GBRAPL2_0_7226 (protein) MEETLEKIKKLSIKEAAEYVVEKVEELVKSGKYSLEEIEEIVSALADELGEKLKKENKEEGLDYAAEAADRIREILSKLDPNLAAFAYSEIGSEIMEAES , what median log2 fold change is on record?
Result string: 0.24

Query string: Entry to check: GBRAPL2_128_7272 (protein) MKLVEITINIKDEESYNLAIEILDRIAEKSSPEVADLADAAKDAAEIAAENGYDEKVVVVDVLSEEEAEELKKIYEEIKKELGEEKVKSVVELEITDIEP
Result string: -0.21

Query string: Then what about the binder GBRAPL2_53_7353 (protein) MIEVDIAHPDPEVMARALEKIFDIIKEAGQKVTVTVTTEDGTVITLTGDIDTIRAETVALAKQQPILVRIELEEEDEEVAEKVVDAALEEGATVSVERVE ?
Result string: 0.275

Query string: And what about the binder GBRAPL2_0_7232 (protein) MEEKIEELKKLSVEEAAKYFVETVKEAVESGKYSLEEIAELIEKMAEVLGEKLKEVKKEEAIDIAAKAADEVRKILSKLDPNLAAYAASEIGAEIMEAWS ?
Result string: 0.0832
